- procedureSummary: Metabolic stability of pooled human liver microsomes
- Assay type: in vitro ADME
- conditionParameters: After 30 min; 0.3 μM compound, 0.2 mg/mL microsomes, 37° C., NADPH
reportedEndpoint: Residual rate of unchanged substance (%)

Reference set, count: 3
{"compound": "Nc1nc2c(nc1C(=O)NCc1ccc(COc3ccccn3)cc1)COC2 [Reference Example 2]", "Residual rate of unchanged substance (%)": "77.6%"}
{"compound": "Nc1ccc(C(=O)NCc2ccc(Cc3cc4c(s3)COC4)cc2)c(N)n1 [Reference Example 1]", "Residual rate of unchanged substance (%)": "75.9%"}
{"compound": "Cc1nc(N)c(C(=O)NCc2ccc(COc3ccccn3)cc2)nc1C [Comparative Example 2, reference compound]", "Residual rate of unchanged substance (%)": "53.7%"}

Kindly consider the entry below.
// Residual rate of unchanged substance (%) lookup, compound = Cc1cc(Cc2ccc(CNC(=O)c3ccc(N)nc3N)cc2)sc1C [Comparative Example 1, reference compound] , result: 77.0%

====

Below, each entry is listed with its recorded microsomal CLint at 0.3 μM.
- procedureSummary: Metabolic stability of pooled human liver microsomes
- Format: in vitro ADME
- conditionParameters: ke/(concentration of pooled human liver microsomes); read-out: Hepatic intrinsic clearance
Report only the number, with the unit µL/min/mg understood.

{"molecule": "Cc1nc(N)c(C(=O)NCc2ccc(COc3ccccn3)cc2)nc1C [Comparative Example 2, reference compound]", "unitSymbol": "µL/min/mg", "microsomal CLint at 0.3 μM": 98}
{"molecule": "Nc1nc2c(nc1C(=O)NCc1ccc(COc3ccccn3)cc1)COC2 [Reference Example 2]", "unitSymbol": "µL/min/mg", "microsomal CLint at 0.3 μM": 35}
{"molecule": "Cc1cc(Cc2ccc(CNC(=O)c3ccc(N)nc3N)cc2)sc1C [Comparative Example 1, reference compound]", "unitSymbol": "µL/min/mg", "microsomal CLint at 0.3 μM": 50}
{"molecule": "Nc1ccc(C(=O)NCc2ccc(Cc3cc4c(s3)COC4)cc2)c(N)n1 [Reference Example 1]", "unitSymbol": "µL/min/mg", "microsomal CLint at 0.3 μM": 39}
{"molecule": "Nc1nc2c(cc1C(=O)NCc1ccc(OCc3ccccc3)cc1)COC2 [Reference Example 3]", "unitSymbol": "µL/min/mg", "microsomal CLint at 0.3 μM": 82}

Kindly consider the entry below.
// microsomal CLint at 0.3 μM lookup, molecule = Cc1cc(C(=O)NCc2ccc(OCc3ccccc3)cc2)c(N)nc1C [Comparative Example 3, reference compound] , result: 150

====

Below, each entry is listed with its recorded Residual rate of unchanged substance (%).
- procedureSummary: Metabolic stability of pooled human liver microsomes
- Format: in vitro ADME
- conditionParameters: After 60 min; 0.3 μM compound, 0.2 mg/mL microsomes, 37° C., NADPH
Report only the number, with the unit % understood.

{"molecule": "Nc1ccc(C(=O)NCc2ccc(Cc3cc4c(s3)COC4)cc2)c(N)n1 [Reference Example 1]", "unitSymbol": "%", "Residual rate of unchanged substance (%)": 61.4}
{"molecule": "Cc1nc(N)c(C(=O)NCc2ccc(COc3ccccn3)cc2)nc1C [Comparative Example 2, reference compound]", "unitSymbol": "%", "Residual rate of unchanged substance (%)": 30.9}
{"molecule": "Nc1nc2c(nc1C(=O)NCc1ccc(COc3ccccn3)cc1)COC2 [Reference Example 2]", "unitSymbol": "%", "Residual rate of unchanged substance (%)": 65.4}

// Residual rate of unchanged substance (%) lookup, molecule = Cc1cc(Cc2ccc(CNC(=O)c3ccc(N)nc3N)cc2)sc1C [Comparative Example 1, reference compound] , result: 56.2
